molecular target: human GCG receptor (human, UniProt P47871 26-477); assay: cell-based or functional assay
Sequence (P47871 26-477): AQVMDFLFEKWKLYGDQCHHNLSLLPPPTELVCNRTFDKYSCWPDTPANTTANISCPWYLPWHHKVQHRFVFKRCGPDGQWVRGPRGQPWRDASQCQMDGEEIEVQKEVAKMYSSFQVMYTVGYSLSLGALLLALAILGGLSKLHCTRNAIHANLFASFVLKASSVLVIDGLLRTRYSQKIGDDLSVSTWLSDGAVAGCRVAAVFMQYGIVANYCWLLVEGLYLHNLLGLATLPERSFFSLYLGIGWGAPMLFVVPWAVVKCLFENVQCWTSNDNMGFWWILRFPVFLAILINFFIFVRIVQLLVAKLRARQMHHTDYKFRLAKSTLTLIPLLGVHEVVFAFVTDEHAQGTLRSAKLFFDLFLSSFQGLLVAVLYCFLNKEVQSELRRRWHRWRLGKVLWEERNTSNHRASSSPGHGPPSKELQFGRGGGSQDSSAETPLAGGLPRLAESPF
Bridge positions count the residues as written; N and C are the ends. Square brackets hold non-standard residues; d marks the D form. Ends that are not written are not given here. * marks the point of attachment. Acetyl(2-(4-imidazolyl)) = O=C(Cc1c[nH]cn1)*; Aib = CC(C)(N)C(=O)O
experimental_readout: In vitro activity compared with native peptide (%) vs Glucagon (cAMP EC50)

binder | value_operator | data_value
H[Aib]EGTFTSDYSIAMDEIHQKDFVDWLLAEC (bridge 16-20) [triple agonist of SEQ ID NO: 54] | = | 1.4
H[Aib]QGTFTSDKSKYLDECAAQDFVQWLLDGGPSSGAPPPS [triple agonist of SEQ ID NO: 41] | < | 0.1
H[Aib]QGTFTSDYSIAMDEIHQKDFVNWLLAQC (bridge 16-20) [triple agonist of SEQ ID NO: 55] | = | 0.7
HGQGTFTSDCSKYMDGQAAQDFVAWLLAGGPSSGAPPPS [triple agonist of SEQ ID NO: 45] | < | 0.1
[Acetyl(2-(4-imidazolyl))][Aib]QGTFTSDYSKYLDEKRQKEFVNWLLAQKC (bridge 16-20) [triple agonist of SEQ ID NO: 93] | = | 0.3
[Acetyl(2-(4-imidazolyl))]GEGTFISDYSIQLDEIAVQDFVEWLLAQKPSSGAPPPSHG [triple agonist of SEQ ID NO: 13] | < | 0.1
[Acetyl(2-(4-imidazolyl))]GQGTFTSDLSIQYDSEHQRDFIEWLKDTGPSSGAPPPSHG [triple agonist of SEQ ID NO: 19] | < | 0.1
Y[Aib]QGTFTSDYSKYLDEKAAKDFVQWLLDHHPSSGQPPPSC (bridge 16-20) [triple agonist of SEQ ID NO: 77] | = | 12.2
Y[Aib]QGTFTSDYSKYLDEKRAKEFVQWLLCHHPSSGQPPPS (bridge 16-20) [triple agonist of SEQ ID NO: 95] | = | 0.4
[Acetyl(2-(4-imidazolyl))][Aib]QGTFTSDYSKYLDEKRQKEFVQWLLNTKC (bridge 16-20) [triple agonist of SEQ ID NO: 88] | = | 0.3
H[Aib]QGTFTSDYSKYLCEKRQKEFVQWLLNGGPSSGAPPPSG (bridge 16-20) [triple agonist of SEQ ID NO: 36] | = | 0.39
H[Aib]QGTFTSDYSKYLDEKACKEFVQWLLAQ (bridge 16-20) [triple agonist of SEQ ID NO: 31] | = | 2.2
[Acetyl(2-(4-imidazolyl))][Aib]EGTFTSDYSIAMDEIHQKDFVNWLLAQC (bridge 16-20) [triple agonist of SEQ ID NO: 83] | = | 1.3
Y[Aib]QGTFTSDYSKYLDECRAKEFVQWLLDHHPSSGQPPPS (bridge 16-20) [triple agonist of SEQ ID NO: 21] | = | 267
Y[Aib]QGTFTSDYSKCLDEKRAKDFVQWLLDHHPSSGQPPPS (bridge 16-20) [triple agonist of SEQ ID NO: 70] | = | 71.3
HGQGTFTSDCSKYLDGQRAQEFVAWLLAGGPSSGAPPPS [triple agonist of SEQ ID NO: 47] | < | 0.1
{Acetyl(2-(4-imidazolyl))}-[Aib]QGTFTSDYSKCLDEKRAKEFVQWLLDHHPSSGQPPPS (bridge 15-19) [triple agonist of SEQ ID NO: 74] | = | 0.9
[Acetyl(2-(4-imidazolyl))]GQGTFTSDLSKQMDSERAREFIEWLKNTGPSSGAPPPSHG [triple agonist of SEQ ID NO: 18] | < | 0.1
Y[Aib]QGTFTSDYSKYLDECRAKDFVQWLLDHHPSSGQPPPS (bridge 16-20) [triple agonist of SEQ ID NO: 66] | = | 172
Y[Aib]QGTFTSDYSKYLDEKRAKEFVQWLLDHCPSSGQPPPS (bridge 16-20) [triple agonist of SEQ ID NO: 96] | = | 195
H[Aib]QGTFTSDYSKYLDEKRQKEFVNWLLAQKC (bridge 16-20) [triple agonist of SEQ ID NO: 34] | = | 0.92
H[Aib]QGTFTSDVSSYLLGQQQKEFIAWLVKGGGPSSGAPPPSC [triple agonist of SEQ ID NO: 5] | < | 0.1
